- STUDY_SYSTEM: Mtb Lpd (Mycobacterium tuberculosis (strain ATCC 25618 / H37Rv), UniProt P9WHH9)
- Format: biochemical
- REPORTED_CONDITIONS: read-out: LPD IC50
// returns N unless IC50 is strictly below 90 nM, in which case Y

- COMPOUND: "Cc1cc(S(=O)(=O)N2CCC[C@H]2C(=O)Nc2ccn(C)c(=O)c2)c2[nH]ncc2c1"
  STUDY_SYSTEM: "Mtb Lpd (Mycobacterium tuberculosis (strain ATCC 25618 / H37Rv), UniProt P9WHH9)"
  ASSIGNED_CATEGORY: "Y"
- COMPOUND: "Cc1cc(S(=O)(=O)N(CC(=O)NC2=CC(=O)C(C)C=C2)C(C)C)c2[nH]ncc2c1 (centres unmarked)"
  STUDY_SYSTEM: "Mtb Lpd (Mycobacterium tuberculosis (strain ATCC 25618 / H37Rv), UniProt P9WHH9)"
  ASSIGNED_CATEGORY: "N"
- COMPOUND: "COc1ccc(NC(=O)CN(C)S(=O)(=O)c2cc(C(F)F)cc3cn[nH]c23)cc1C"
  STUDY_SYSTEM: "Mtb Lpd (Mycobacterium tuberculosis (strain ATCC 25618 / H37Rv), UniProt P9WHH9)"
  ASSIGNED_CATEGORY: "Y"
- COMPOUND: "Cc1cc(S(=O)(=O)N(C)CC(=O)Nc2ccc3c(c2)OCCN3C2CCOCC2)c2[nH]c(C#N)cc2c1"
  STUDY_SYSTEM: "Mtb Lpd (Mycobacterium tuberculosis (strain ATCC 25618 / H37Rv), UniProt P9WHH9)"
  ASSIGNED_CATEGORY: "N"

Q: Hello, I'm reviewing records and need to know if IC50 of `Cc1cc(S(=O)(=O)N(C)CC(=O)NC2CCCCC2)c2n[nH]cc2c1` is below 90 nM. Could you check?
Result: Y
